Numbers sourced from patent EP4782453A1.

Target: Menin-MLL (Homo sapiens)
Construct: His-Menin (M1-L615 end); purchased BIORTUS BP9210
Sequence (O00255 1-615 isoform O00255-1): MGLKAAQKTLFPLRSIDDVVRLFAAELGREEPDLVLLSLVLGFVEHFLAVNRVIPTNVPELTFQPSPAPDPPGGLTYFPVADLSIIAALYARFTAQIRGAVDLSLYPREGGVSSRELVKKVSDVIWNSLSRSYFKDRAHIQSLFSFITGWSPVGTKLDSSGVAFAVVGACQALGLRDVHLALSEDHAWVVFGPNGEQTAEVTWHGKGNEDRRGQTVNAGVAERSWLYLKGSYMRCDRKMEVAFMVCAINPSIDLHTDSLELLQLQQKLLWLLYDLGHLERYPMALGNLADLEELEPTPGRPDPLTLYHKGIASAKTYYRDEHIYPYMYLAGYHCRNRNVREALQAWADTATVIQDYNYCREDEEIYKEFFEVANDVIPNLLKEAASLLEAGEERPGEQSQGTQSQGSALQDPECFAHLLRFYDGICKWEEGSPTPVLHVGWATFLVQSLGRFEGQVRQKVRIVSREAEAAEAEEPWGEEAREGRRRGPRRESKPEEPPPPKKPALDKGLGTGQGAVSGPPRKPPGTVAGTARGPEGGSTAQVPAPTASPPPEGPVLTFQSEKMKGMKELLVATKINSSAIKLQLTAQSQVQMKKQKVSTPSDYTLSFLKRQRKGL
Test: Inhibitory activity against Menin-MLL binding (fluorescence polarization)
Conditions: fluorescence polarization; 150 nM His-Menin, 15 nM FITC-MLL; 25°C for 60 min; read-out: Menin-MLL IC50
Listed next: entries and their corresponding IC50.
Give a bare numeral; the unit nM is implied.

# example entries with known answers
INSERT INTO results (compound_string, experimental_target, numeric_readout) VALUES
  ('CCN(C(=O)c1cc(F)ccc1-c1cc(C2CN([C@H](CCCN3CCC(OC)CC3)C(C)C)C2)cn2c(C)ncc12)C(C)C', 'Menin-MLL (Homo sapiens)', 1.9),
  ('CCN(C(=O)c1cc(F)ccc1-c1cc(C2CN([C@H](CCCN3CCN(S(C)(=O)=O)CC3)C(C)C)C2)cn2c(C)ncc12)C(C)C', 'Menin-MLL (Homo sapiens)', 4.2),
  ('CC(=O)N1CCC(CN2CC(Cc3cc(-c4ccc(F)cc4C(=O)N4[C@H](C)COC[C@H]4C)c4c(F)nc(C)n4c3)C2)CC1', 'Menin-MLL (Homo sapiens)', 130),
  ('CC(=O)N1CCN(CCC[C@H](C(C)C)N2CC(c3cc(-c4ccc(F)cc4C(=O)N4CCOC[C@H]4C)c4c(F)nc(C)n4c3)C2)[C@@H](C)C1', 'Menin-MLL (Homo sapiens)', 11);

Okay, next one:
QUERY: Consider the molecule shown here: `CC(=O)N1CCN(CCC[C@H](C(C)C)N2CC(c3cc(-c4ccc(F)cc4C(=O)N4CCOC[C@H]4C)c4c(F)nc(C)n4c3)C2)C2(CC2)C1` What is its recorded IC50?
RESULT: 30

----------
Target: Menin-MLL (Homo sapiens)
Construct: His-Menin (M1-L615 end); purchased BIORTUS BP9210
Test: Inhibitory activity against Menin-MLL binding (fluorescence polarization)
Settings: fluorescence polarization; 150 nM His-Menin, 15 nM FITC-MLL; 25°C for 60 min; read-out: Menin-MLL IC50
Label Criterion met when IC50 < 10 nM; otherwise Criterion not met.

Examples with answers:
INSERT INTO results (compound, assigned_label) VALUES
  ('CCN(C(=O)c1cc(F)ccc1-c1cc(C2CN([C@H](CCCN3CCN(CCF)CC3)C(C)C)C2)cc2c1cnn2C)C(C)C', 'Criterion met'),
  ('Cc1nc(F)c2c(-c3ccc(F)cc3C(=O)N3CCOC[C@H]3C)cc(C3CN(CC4CCN(C(=O)CC(C)C)CC4)C3)cn12', 'Criterion not met'),
  ('CCN(C(=O)c1cc(F)ccc1-c1cc(C2CN(C(C[C@@H](O)CO)C(C)C)C2)cn2c(C)ncc12)C(C)C (stereo partly drawn)', 'Criterion not met'),
  ('CCC(=O)N1CCC(C(C)N2CC(c3cc(-c4ccc(F)cc4C(=O)N4CCOC[C@H]4C)c4cnc(C)n4c3)C2)CC1 (stereo partly drawn)', 'Criterion not met'),
  ('CCN(C(=O)c1cc(F)ccc1-c1cc(C2CN(C(CCO)C(C)C)C2)cn2c(C)ncc12)C(C)C (stereo not drawn)', 'Criterion met'),
  ('CCN(C(=O)c1cc(F)ccc1-c1cc(C2CN([C@H](CCCN3CCC(NS(=O)(=O)CC)CC3)C(C)C)C2)cn2c(C)ncc12)C(C)C', 'Criterion met'),
  ('CC(C)N(CC(F)F)C(=O)c1cc(F)ccc1-c1cc([C@H]2CCN(CCN3CCC(NC(=O)OC(C)(C)C)CC3)C2)cc2c1cnn2C', 'Criterion not met'),
  ('CCN(C(=O)c1cc(F)ccc1-c1cc(C2CN([C@H](CCCN3CCN[C@H](CF)C3)C(C)C)C2)cn2c(C)ncc12)C(C)C', 'Criterion met');

QUERY: Hi there! Is IC50 for CO[C@@H]1CN(CCC[C@H](C(C)C)N2CC(c3cc(-c4ccc(F)cc4C(=O)N4CCOC[C@H]4C)c4c(F)nc(C)n4c3)C2)C[C@H]1O (relative stereo) [Example 291] below 10 nM, do you know?
RESULT: Criterion met

QUERY: Given `Cc1nc(F)c2c(-c3ccc(F)cc3C(=O)N3[C@H](C)COC[C@H]3C)cc(C3CN([C@@H](C)C4CCOCC4)C3)cn12` , is recorded IC50 strictly lower than 10 nM?
RESULT: Criterion met
